Each recorded value in this set is attributed to patent US20230063457A1.

Target: Phospho-DNA-PK in FaDu Cells (Homo sapiens)
Construct: host or cells: FaDu
Experiment: Effect of compounds on phospho-DNA-PK in FaDu cells (MesoScale sandwich immunoassay)
Assay type: cell-based
Details: 1 hour pre-incubation, 1 μg/ml Neocarzinostatin 2 hours, averaged values, read-out: MSD FaDu IC50
measurement-kind: IC50 (nM)

Please review the entries below; each comes with its answer.
Which IC50 is listed for "C[C@H]1COCCN1c1cc2ncccc2c(O[C@H]2CC[C@@H](c3nc[nH]n3)CC2)n1" ? 891

Which IC50 is listed for "N#Cc1cccnc1NCC1CCN(c2nc(N3CCOCC3)cc3ncccc23)CC1" ? 7990

Which IC50 is listed for CC1CN(c2ncn[nH]2)CCC1Oc1nc(N2CCOCC2)cc2ncccc12 (stereo not shown) ? 3000

Which IC50 is listed for "c1cnc(N2CCC(COc3nc(N4CCOCC4)cc4ncccc34)CC2)nc1" ? 1310

I: NC(=O)[C@H]1CC[C@H](COc2nc(N3CCOCC3)cc3ncccc23)CC1
II: c1cnc(NCCC2CN(c3nc(N4CCOCC4)cc4ncccc34)C2)nc1
III: Oc1cnc2cc(N3CCOCC3)nc(O[C@H]3CC[C@@H](c4ccccc4)CC3)c2c1
IV: C[C@@H]1CN(c2cc3ncccc3c(O[C@H]3CC[C@@H](c4nc[nH]n4)CC3)n2)CCO1
V: CN(C)C(=O)c1ccnc(NCC2CCN(c3nc(N4CCOCC4)cc4ncccc34)CC2)n1
# ascending order, key=IC50 Returns: the labels listed in the requested order. IV, III, I, II, V

a: OCCC1CCN(c2nc(N3CCOCC3)cc3ncccc23)CC1
b: c1cnc2cc(N3CCOCC3)nc(N3CCC(CNc4cnccn4)CC3)c2c1
c: Cc1cnc(NCC2CCN(c3nc(N4CCOCC4)cc4ncccc34)CC2)nc1
d: O=C1NCC(CNc2nc(N3CCOCC3)cc3ncccc23)CO1 (stereo not shown)
Arrange these molecules by their IC50, starting with the largest number. Returns: the labels listed in the requested order. b, d, a, c
(b: 9670 nM, d: 3330 nM, a: 2150 nM, c: 905 nM)

I: CS(=O)(=O)N1CCN(c2nc(N3CCOCC3)cc3ncccc23)CC1
II: NC(=O)[C@H]1CC[C@@H](COc2nc(N3CCOCC3)cc3ncccc23)CC1
// which entry has the larger IC50 value, I or II ? API: response body contains the label of the selected item. I
(I: 2890 nM, II: 2010 nM)

a: c1cnc2cc(N3CCOCC3)nc(N[C@H]3CC[C@@H](c4nnc[nH]4)CC3)c2c1
b: c1cnc(N[C@H]2[C@@H]3CN(c4nc(N5CCOCC5)cc5ncccc45)C[C@@H]32)nc1
c: Fc1cnn([C@H]2CC[C@@H](Oc3nc(N4CCOCC4)cc4ncccc34)CC2)c1
d: CCCCc1nc2cc(N3CCOCC3)nc(O[C@H]3CC[C@@H](n4cc(F)cn4)CC3)c2cc1O
e: c1cnnc(NCC2CCN(c3nc(N4CCOCC4)cc4ncccc34)CC2)c1
Arrange these molecules by their IC50, starting with the largest number. Returns: the labels listed in the requested order. e, b, a, d, c
